Tested on: cortical spreading depression (KCl application), Long-Evans rats
Experiment: In vivo electrophysiology: number of cortical spreading depressions produced by KCl application
Conditions: 1 mg/kg, i.v., 15 min prior to KCl; rat
measurement-label: % Reduction (number of spreading depressions, from vehicle control)

// below: answered compounds
- C[C@H](NC(=O)/C=C/c1cc(F)ccc1F)c1cccc(N2CCOCC2)c1: 37 (1 mg/kg, i.v.) %
- C[C@H](NC(=O)/C=C/c1ccc(F)cc1)c1ccc(F)c(N2CCOCC2)c1: 25 (1 mg/kg, i.v.) %

Reported % Reduction (number of spreading depressions, from vehicle control) of C[C@H](NC(=O)/C=C/c1ccccc1)c1cccc(N2CCOCC2)c1 : 27 (1 mg/kg, i.v.) %

Lab note: measured % Reduction (number of spreading depressions, from vehicle control) of C[C@H](NC(=O)/C=C/c1ccc(F)cc1)c1ccc2ccccc2c1 was 25 (1 mg/kg, i.v.) %

---

Biological target: mKCNQ2 channels (Mus musculus, UniProt Q9Z351)
Construct: expressed in transfected cells
Sequence (Q9Z351 whole entry): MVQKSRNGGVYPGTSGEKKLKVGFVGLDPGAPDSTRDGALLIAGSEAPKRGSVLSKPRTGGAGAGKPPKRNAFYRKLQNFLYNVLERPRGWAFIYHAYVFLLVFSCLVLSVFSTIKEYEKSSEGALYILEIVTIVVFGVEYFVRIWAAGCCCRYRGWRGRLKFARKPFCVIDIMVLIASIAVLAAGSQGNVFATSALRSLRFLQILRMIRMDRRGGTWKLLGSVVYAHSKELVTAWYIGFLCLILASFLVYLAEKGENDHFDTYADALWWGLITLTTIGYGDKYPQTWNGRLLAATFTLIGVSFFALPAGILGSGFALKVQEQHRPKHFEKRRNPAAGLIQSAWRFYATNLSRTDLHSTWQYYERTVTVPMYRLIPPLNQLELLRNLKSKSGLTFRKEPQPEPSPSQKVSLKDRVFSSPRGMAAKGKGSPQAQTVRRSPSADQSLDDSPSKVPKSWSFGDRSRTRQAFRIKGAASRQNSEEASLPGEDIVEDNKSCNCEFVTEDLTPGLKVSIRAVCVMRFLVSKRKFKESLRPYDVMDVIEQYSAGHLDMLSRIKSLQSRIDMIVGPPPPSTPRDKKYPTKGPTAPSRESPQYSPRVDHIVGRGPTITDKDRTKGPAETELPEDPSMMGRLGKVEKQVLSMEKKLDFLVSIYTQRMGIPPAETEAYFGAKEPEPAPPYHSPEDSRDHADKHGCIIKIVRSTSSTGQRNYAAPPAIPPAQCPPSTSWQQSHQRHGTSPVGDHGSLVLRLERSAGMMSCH
Assay: Whole-cell patch-clamp, HEK 293 stable cell line expressing mKCNQ2 channels
Format: cell-based
Conditions: HEK293; HEK 293 mKCNQ2, Hill fit; read-out: Imax (%)
measurement-label: Emax (%)
Could you give me the number in %? Just the number is fine.

- CC(NC(=O)/C=C/c1cc(F)ccc1F)c1ccc2c(c1)OCO2 (racemic) [Example 38]: 550
- CC(NC(=O)/C=C/c1ccccc1Cl)c1ccc2c(c1)OCO2 (racemic) [Example 46]: 260
- C[C@H](NC(=O)/C=C/c1ccc(F)cc1)c1ccc2ccccc2c1 [Example 1]: 237
- C[C@H](NC(=O)/C=C/c1cc(F)ccc1F)c1cccc(N2CCOCC2)c1 [Example 90]: 523
- CC(NC(=O)/C=C/c1cc(F)cc(F)c1)c1ccc2c(c1)CCCN2 (stereo not drawn) [Example 248]: 290

Turning now to a further record.
Param item: CCN1CCOc2ccc(C(C)NC(=O)/C=C/c3ccccc3F)cc21 (single isomer, unassigned) [Example 214] ; param system: mKCNQ2 channels (Mus musculus, UniProt Q9Z351); output Emax: 260

---

melting point: recorded values

Please review the entries below; each comes with its answer.
- CC(NC(=O)/C=C/c1c(F)cccc1F)c1ccc2c(c1)CCCN2 (stereo not drawn): 77 to 80 °C
- CC(NC(=O)/C=C/c1ccc(F)cc1)c1ccc2c(c1)N(C)CCC2 (racemic): 183 to 185 °C
- CC(NC(=O)/C=C/c1ccccc1F)c1ccc2c(c1)CCCN2 (stereo not drawn): 149 to 151 °C (dec.)
- CC(NC(=O)/C=C/c1ccccc1F)c1ccc2c(c1)NCCC2 (racemic): 171 to 173 °C
- CC(NC(=O)/C=C/c1ccccc1)c1ccc2c(c1)N(C)CCC2 (racemic): 166 °C (dec.)

Given item CC(NC(=O)/C=C/c1ccccc1)c1ccc2c(c1)CCCN2C (stereo not drawn) , the value recorded as its melting point is 65 to 68 °C

// CC(NC(=O)/C=C/c1cccc(F)c1)c1ccc2c(c1)CCCN2 (stereo not drawn) : melting point value = 172 to 174 °C

The recorded melting point for entry CC(NC(=O)/C=C/c1cc(F)ccc1F)c1ccc2c(c1)NCCC2 (racemic) equals 139 to 141 °C

Looking up CC(NC(=O)/C=C/c1cc(F)ccc1F)c1ccc2c(c1)CCCN2C (stereo not drawn) , I see its melting point listed as 51 to 55 °C

---

Biological target: mKCNQ2 channels (Mus musculus)
Construct: expressed in transfected cells
Assay: Whole-cell patch-clamp, HEK 293 stable cell line expressing mKCNQ2 channels
Assay type: cell-based
Details: @ −40 mV; HEK 293 mKCNQ2, Hill fit
measurement-label: EC50 (µM)
Write the answer as a number in µM, unit excluded.

# example entries with known answers
• CC(NC(=O)/C=C/c1cc(F)cc(F)c1)c1ccc2c(c1)CCCN2 (stereo not shown) [Example 248] = 5
• CC(NC(=O)/C=C/c1cc(F)ccc1F)c1ccc2c(c1)OCO2 (racemic) [Example 38] = 4.2
• CCN1CCCc2ccc(C(C)NC(=O)/C=C/c3cc(F)ccc3F)cc21 (racemic) [Example 242] = 1.4

EC50 on mKCNQ2 channels (Mus musculus) for CCN1CCOc2ccc(C(C)NC(=O)/C=C/c3ccccc3F)cc21 (single isomer, unassigned) [Example 214] is 0.0009

# CC(NC(=O)/C=C/c1ccccc1F)c1ccc2c(c1)N(CC1CC1)CCO2 (single isomer, unassigned) [Example 215] with mKCNQ2 channels (Mus musculus): EC50 is 5.4

Result for C[C@H](NC(=O)/C=C/c1ccc(F)cc1)c1ccc(F)c(N2CCOCC2)c1 [Example 169] , tested on mKCNQ2 channels (Mus musculus), EC50: 1

---

Collected EC50 values appear next to each entry.
Target: mKCNQ2 channels (Mus musculus, UniProt Q9Z351)
Construct: expressed in transfected cells
Assay: Whole-cell patch-clamp, HEK 293 stable cell line expressing mKCNQ2 channels
Format: cell-based
Settings: @ −40 mV; HEK 293 mKCNQ2, Hill fit
Express it in µM; write the number only.

Previously resolved entries follow.
• C[C@H](NC(=O)/C=C/c1ccc(F)cc1)c1ccc2ccccc2c1 = 9.2
• C[C@H](NC(=O)/C=C/c1ccc(Cl)cc1F)c1cccc(N2CCOCC2)c1 = 2.9
• C[C@H](NC(=O)/C=C/c1cc(F)ccc1F)c1cccc(N2CCOCC2)c1 = 1.2

Data point: CC(NC(=O)/C=C/c1ccccc1Cl)c1ccc2c(c1)OCO2 (racemic) ; EC50 = 0.0006
